test system: NCI-H522; experiment: NCI tumour cell line growth inhibition, 48 h
Activity calls are given as the source filed them. Rule as the data show it: active = GI50 up to about 1.1 µM and inactive = higher.
Please go through the items and note down their GI50.

May I ask what GI50 has been recorded for `CCn1c2ccccc2n2c(=O)c3c(c(C#N)c12)CCCC3` ?
> 100 µM (inactive)

Repeat with `NC(=O)NC(=O)c1cccc(NC(=O)CCl)c1`
1.55 µM (inactive)

Repeat with CN1C(c2ccccc2)CC(=Nc2ccccc2)CC1c1ccccc1 (centres undefined)
4.65 µM (inactive)

Repeat with `O=c1c(-c2nc3ccccc3c3ccccc3c2=O)nc2ccccc2c2ccccc12`
37.1 µM (inactive)

Repeat with `CCOC(=O)C(=O)/C(=C/N1C(=O)CC(=O)NC1=S)C(=O)OCC`
> 100 µM (inactive)

Repeat with `O=c1c2c(-c3ccccc3)c3ccccc3nc2cnn1-c1ccccc1`
26.7 µM (inactive)

Repeat with CCN(CC)CC(O)CNc1ccc(NCC(O)CCl)c2c1C(=O)c1ccccc1C2=O (centres undefined)
4.47 µM (inactive)

Repeat with CCCCS(=O)(=O)CCC(N)P(=O)(O)O (centres undefined)
> 100 µM (inactive)

Repeat with `N#CC(C#N)=C/C=C(\Sc1c(Cl)c(Cl)nc(Cl)c1Cl)c1ccc(Cl)cc1`
18.8 µM (inactive)
